Just for reference, patent US20250263426A1 is where these values come from.

Provide the recorded IC50 for the entries that follow.
target: PDE4B2 (Homo sapiens (Human), UniProt Q07343); test: Effect of compounds on PDE4B2 activity (fluorescence polarization kit)
Sequence (Q07343 other isoform, or with tags, fused parts or gaps): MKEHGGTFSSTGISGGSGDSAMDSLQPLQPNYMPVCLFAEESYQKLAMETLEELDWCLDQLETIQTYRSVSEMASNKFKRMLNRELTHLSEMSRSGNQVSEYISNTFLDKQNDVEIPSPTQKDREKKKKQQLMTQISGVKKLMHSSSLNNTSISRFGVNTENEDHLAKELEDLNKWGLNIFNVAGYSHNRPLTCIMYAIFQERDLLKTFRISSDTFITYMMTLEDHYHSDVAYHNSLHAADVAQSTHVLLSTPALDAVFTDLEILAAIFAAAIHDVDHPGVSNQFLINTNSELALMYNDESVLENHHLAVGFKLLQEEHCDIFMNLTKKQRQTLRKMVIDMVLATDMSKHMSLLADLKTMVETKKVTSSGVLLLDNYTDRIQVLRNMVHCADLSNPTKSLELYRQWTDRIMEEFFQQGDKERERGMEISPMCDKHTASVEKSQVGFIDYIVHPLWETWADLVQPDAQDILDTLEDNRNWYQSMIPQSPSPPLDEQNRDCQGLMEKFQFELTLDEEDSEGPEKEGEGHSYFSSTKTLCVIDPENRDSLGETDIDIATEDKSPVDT

Answered cases to consult:
compound="CC(C)(CO)Nc1nc(N2CC=C(c3ncc(Cl)cn3)CC2)nc2c1[S+]([O-])CC2 (stereo not shown) [Compound 31]" attribute_measured=IC50 observed_value="10 to 50 nM"
compound="CC(C)(COC(N)=O)Nc1nc(N2CC=C(c3ncc(C4CC4)cn3)C2)nc2c1[S@+]([O-])CC2 [Compound 116]" attribute_measured=IC50 observed_value="10 to 50 nM"
compound="CC(C)(COC(N)=O)Nc1nc(N2CC=C(c3ncc4c(n3)CC4)CC2)nc2c1[S@+]([O-])CC2 [Compound 132]" attribute_measured=IC50 observed_value="10 to 50 nM"
compound="CC(C)(COC(N)=O)Nc1nc(N2CC=C(c3ncc(C(F)F)cn3)CC2)nc2c1[S@+]([O-])CC2 [Compound 130]" attribute_measured=IC50 observed_value="10 to 50 nM"
compound="CC(C)(COC(N)=O)Nc1nc(N2CC=C(c3ncc4c(n3)CCC4)CC2)nc2c1[S@+]([O-])CC2 [Compound 125]" attribute_measured=IC50 observed_value="10 to 50 nM"

Hey, quick one: what's IC50 for each of these?
1. CC(C)(COC(N)=O)Nc1nc(N2CC=C(c3ncc(C4CCC4)cn3)CC2)nc2c1[S@+]([O-])CC2 [Compound 126]
2. O=S1(=O)CCCc2nc(N3CC=C(c4ncc(Cl)cn4)CC3)nc(NC3(CO)CCC3)c21 [Compound 54]

< 10 nM
50 to 100 nM

====

Provide the recorded IC50 for the entries that follow.
tested on: human peripheral blood mononuclear cells (TNF-α release); test: Inhibition of LPS-induced TNF-α release from human peripheral blood mononuclear cells in vitro; format: cell-based; details: Homo sapiens, PBMC, 4 h, read-out: Re IC50 (nM)

compound="C#Cc1ccc(N2CCN(c3nc4c(c(NC5(CO)CCC5)n3)[S+]([O-])CCC4)CC2)cc1 (centres unmarked) [Compound 41]" assay_system="human peripheral blood mononuclear cells (TNF-α release)" attribute_measured=IC50 observed_value="10 to 50 nM"

In the following, a different compound is considered.
Name the recorded IC50 for C#Cc1cnc(C2=CCN(c3nc4c(c(NC5(C(C)O)CCC5)n3)[S@+]([O-])CC4)CC2)nc1 (some centres unmarked) [Compound 66] .
10 to 50 nM

====

Provide the recorded pIC50 for the entries that follow.
target: UniProt Q07343; test: Effect of compounds on PDE4B2 activity (fluorescence polarization kit)
pIC50: −log10 of the molar value.

Answered cases to consult:
cpd_smiles=CC(C)(COC(N)=O)Nc1nc(N2CC=C(c3ncc(C4CC4)cn3)CC2)nc2c1[S@+]([O-])CC2 attribute_measured=pIC50 observed_value="> 8.00"
cpd_smiles=COC(=O)NCC1(Nc2nc(N3C[C@@H]4CC(c5ncc(Cl)cn5)=C[C@@H]4C3)nc3c2[S@+]([O-])CC3)CCC1 attribute_measured=pIC50 observed_value="> 8.00"
cpd_smiles=N#CCC1(Nc2nc(N3CC=C(c4ncc(C5CC5)cn4)CC3)nc3c2[S@+]([O-])CC3)CCC1 attribute_measured=pIC50 observed_value="> 8.00"
cpd_smiles=CNC(=O)OCC(C)(C)Nc1nc(N2CC=C(c3ncc(Cl)cn3)CC2)nc2c1[S@+]([O-])CC2 attribute_measured=pIC50 observed_value="7.30 to 8.00"
cpd_smiles=C#Cc1ccc(C2=CCN(c3nc4c(c(NC(C)(C)COC(N)=O)n3)[S@+]([O-])CC4)CC2)nc1 attribute_measured=pIC50 observed_value="> 8.00"
cpd_smiles=Cc1cnc(C2=CCN(c3nc4c(c(NC(C)(C)COC(N)=O)n3)[S@+]([O-])CC4)CC2)nc1 attribute_measured=pIC50 observed_value="7.30 to 8.00"

In the following, a different molecule is considered.
Name the recorded pIC50 for CC#Cc1ccc(C2=CCN(c3nc4c(c(NC5(COC(N)=O)CCC5)n3)[S@+]([O-])CC4)CC2)nc1 .
> 8.00
